This section presents compounds with their documented inhibition values.
Target: Serine/threonine-protein kinase MRCK alpha (Homo sapiens) (UniProt Q5VT25);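 further: each value is an averaged percent inhibition of MRCK alpha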
Sequence (Q5VT25 whole entry): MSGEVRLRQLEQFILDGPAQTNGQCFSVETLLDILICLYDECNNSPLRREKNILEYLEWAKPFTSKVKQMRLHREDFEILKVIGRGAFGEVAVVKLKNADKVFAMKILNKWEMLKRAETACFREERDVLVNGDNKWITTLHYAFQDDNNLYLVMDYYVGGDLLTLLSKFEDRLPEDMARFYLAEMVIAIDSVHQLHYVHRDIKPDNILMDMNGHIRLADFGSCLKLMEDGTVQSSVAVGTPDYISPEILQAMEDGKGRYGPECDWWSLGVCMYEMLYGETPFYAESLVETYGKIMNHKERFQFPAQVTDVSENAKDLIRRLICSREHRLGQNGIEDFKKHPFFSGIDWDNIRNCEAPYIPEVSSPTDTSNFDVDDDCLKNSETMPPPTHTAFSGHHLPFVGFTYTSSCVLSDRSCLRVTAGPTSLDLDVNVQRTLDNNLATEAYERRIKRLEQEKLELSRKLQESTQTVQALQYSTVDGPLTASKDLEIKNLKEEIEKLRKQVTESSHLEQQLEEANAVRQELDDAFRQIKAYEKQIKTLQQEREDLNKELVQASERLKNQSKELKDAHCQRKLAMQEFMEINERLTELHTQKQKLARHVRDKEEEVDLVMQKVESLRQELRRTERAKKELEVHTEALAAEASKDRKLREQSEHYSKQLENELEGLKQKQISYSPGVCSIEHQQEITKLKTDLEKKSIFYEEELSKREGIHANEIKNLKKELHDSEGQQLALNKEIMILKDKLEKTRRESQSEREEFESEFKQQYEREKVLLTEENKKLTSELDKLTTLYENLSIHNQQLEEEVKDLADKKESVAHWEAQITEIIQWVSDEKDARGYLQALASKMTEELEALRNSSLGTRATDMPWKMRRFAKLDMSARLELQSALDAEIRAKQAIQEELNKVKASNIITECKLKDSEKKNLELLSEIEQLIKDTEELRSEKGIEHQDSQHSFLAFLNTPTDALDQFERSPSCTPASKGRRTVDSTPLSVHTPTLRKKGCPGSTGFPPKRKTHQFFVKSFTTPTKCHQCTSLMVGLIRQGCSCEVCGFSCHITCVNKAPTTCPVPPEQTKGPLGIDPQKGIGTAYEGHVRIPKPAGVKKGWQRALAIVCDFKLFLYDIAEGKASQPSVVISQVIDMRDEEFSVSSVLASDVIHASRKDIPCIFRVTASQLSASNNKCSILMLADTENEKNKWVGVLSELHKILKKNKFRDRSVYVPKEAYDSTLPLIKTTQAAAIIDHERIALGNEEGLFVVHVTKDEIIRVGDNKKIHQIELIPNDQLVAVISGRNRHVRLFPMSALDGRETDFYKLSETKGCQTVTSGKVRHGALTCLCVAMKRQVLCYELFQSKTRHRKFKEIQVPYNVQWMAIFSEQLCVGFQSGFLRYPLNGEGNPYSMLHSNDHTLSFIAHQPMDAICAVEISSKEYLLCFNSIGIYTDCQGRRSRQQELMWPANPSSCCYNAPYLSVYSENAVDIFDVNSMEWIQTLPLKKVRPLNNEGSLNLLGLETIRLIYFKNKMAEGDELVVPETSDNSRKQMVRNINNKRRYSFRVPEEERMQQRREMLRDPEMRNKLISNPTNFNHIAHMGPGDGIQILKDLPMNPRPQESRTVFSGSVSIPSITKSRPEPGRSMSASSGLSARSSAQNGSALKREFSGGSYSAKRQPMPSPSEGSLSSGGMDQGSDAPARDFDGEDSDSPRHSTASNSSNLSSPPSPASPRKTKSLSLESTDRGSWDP
Settings: at 1 µM
Answer with a number only, understood to be in %.

Below, each entry is followed by its recorded inhibition result.
| smilesRecord | reading |
| --- | --- |
| Cc1cc(O)cc(C)c1/C=C/c1cncc(C(N)=O)c1 | 0.43 |
| CS(=O)(=O)CCNCc1ccc(-c2ccc3ncnc(Nc4ccc(OCc5ccccc5)cc4)c3c2)o1 | -2.61 |
| COc1cc(N2CCN(C(C)C)CC2)ccc1Nc1nc(Nc2cccc3ncccc23)c2cc[nH]c2n1 | 4.44 |
| CN(c1ccc(NC(=O)NCCN2CCOCC2)cc1)c1ccnc(Nc2ccc(CS(C)(=O)=O)cc2)n1 | 2.59 |
| NS(=O)(=O)c1ccc(N/N=C2\C(=O)Nc3cccc(CCc4ccncc4)c32)cc1 | -0.69 |
| CCOc1ccc2c(-c3ccnc(Nc4cc(OC)cc(C(F)(F)F)c4)n3)cnn2n1 | -0.62 |

Please look at the following compound next.
Please give the documented inhibition of Cc1nnc(-c2cccc(-c3ccc(C(=O)NCC4CC4)cc3)c2)o1 2.11
